Values from patent US20240067748A1

Inhibition rate (%) listing for selected binders.
Target: T1, human TROP2 protein (Sino Biological, #10428-H08H) (human, UniProt P09758 27-274)
T1 construct: bought protein; also called human Trop2 protein antigen (His tag); not shown: His tag
T1 sequence (looked up): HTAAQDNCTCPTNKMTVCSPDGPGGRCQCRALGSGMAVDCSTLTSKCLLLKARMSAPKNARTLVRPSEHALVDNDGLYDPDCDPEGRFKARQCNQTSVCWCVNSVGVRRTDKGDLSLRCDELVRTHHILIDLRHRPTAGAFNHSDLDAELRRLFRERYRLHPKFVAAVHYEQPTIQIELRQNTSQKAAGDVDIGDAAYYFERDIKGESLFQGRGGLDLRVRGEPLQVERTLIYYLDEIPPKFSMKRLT
Assay: BLI epitope binning (Octet), biotinylated human Trop2 on SA sensor; row = primary antibody; competitor (secondary antibody, column): PR001166
Please don't drop the unit; write it after the number.

Past entries and their recorded results:
1. PR001166 (antibody, human IgG1, kappa, V domains shown, fully human IgG1/kappa; also called antibody No. (27)) VH: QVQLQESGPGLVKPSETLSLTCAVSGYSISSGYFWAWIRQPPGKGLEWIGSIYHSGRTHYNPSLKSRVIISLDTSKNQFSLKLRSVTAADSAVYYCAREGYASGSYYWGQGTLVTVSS VL: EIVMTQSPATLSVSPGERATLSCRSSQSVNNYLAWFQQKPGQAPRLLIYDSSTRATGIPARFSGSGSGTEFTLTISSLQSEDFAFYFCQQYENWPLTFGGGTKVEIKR; 102%
2. PR001142 (antibody, human IgG1, kappa, V domains shown, fully human IgG1/kappa; also called antibody No. (9)) VH: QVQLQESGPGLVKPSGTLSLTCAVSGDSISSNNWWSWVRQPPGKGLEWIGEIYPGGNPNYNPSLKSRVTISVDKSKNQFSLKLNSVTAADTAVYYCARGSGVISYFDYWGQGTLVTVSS VL: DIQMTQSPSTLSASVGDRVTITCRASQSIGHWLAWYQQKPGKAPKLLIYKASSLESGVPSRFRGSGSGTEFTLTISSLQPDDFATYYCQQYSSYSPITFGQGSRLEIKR; 85.5%
3. PR001165 (antibody, human IgG1, kappa, V domains shown, fully human IgG1/kappa; also called antibody No. (26)) VH: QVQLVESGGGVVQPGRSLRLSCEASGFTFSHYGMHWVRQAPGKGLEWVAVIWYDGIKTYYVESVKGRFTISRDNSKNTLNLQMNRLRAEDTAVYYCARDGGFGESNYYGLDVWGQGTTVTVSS VL: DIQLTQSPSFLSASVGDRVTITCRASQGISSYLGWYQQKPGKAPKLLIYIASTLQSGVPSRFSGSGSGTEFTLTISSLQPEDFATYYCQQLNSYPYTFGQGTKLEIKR; 5.24%

Noted for comparative example 2 antibody Tab (hRS7) (antibody, human IgG1, kappa, V domains shown, prepared on the basis of sacituzumab govitecan (ChemPartner, #T07-001); naked antibody) VH: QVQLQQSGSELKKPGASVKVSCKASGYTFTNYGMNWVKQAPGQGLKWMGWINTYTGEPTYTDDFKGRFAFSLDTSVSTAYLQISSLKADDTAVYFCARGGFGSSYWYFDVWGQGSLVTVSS VL: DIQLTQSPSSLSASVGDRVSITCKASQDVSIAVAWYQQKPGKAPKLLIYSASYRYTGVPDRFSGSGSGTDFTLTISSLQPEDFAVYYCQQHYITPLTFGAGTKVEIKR : its Inhibition rate (%) reads 7.34%
